EXPERIMENTAL DETAILS: in vitro
Assay type: cell-based
PROTOCOL CONDITIONS: human
Non-standard residues stand in square brackets, D forms with d. Residues, ends and D or L forms follow the SMILES beside them. Nspe = C[C@H](NCC(=O)O)c1ccccc1; Nlys = NCCCCNCC(=O)O
ENDPOINT LABEL: CC50 at 24 h (µM)
Supply the numeric figure in µM, leaving out any unit text.

Query :: Any idea what its CC50 at 24 h is? The compound is C[C@@H](c1ccccc1)N(CC(=O)N(CCCCN)CC(=O)N(CC(=O)N(CC(=O)N(CCCCN)CC(=O)N(CC(=O)N(CC(=O)N(CCCCN)CC(N)=O)[C@@H](C)c1ccccc1)[C@@H](C)c1ccccc1)[C@@H](C)c1ccccc1)[C@@H](C)c1ccccc1)C(=O)CN(C(=O)CNCCCCN)[C@@H](C)c1ccccc1 [compound 23] (H-[Nlys][Nspe][Nspe][Nlys][Nspe][Nspe][Nlys][Nspe][Nspe][Nlys]-NH2)
Result :: 80.5
